This collection of values is drawn from paper PMC5159840.

# Tested on: NMDA receptor (NMDAR)
# Construct: gene Grin1; native receptor in dissociated cultures of rat hippocampal neurons
# ASSAY OVERVIEW: whole-cell patch clamp of NMDA-evoked currents, concentration-response at -70 mV
# Format: cell-based, Rattus norvegicus
pIC50: −log10 of the molar value.
OUTCOME MEASURE: pIC50

CNC1(c2ccccc2Cl)CCCCC1=O (racemic)
6.40
